studyTarget: GB1-MSI1-RBD1 (Homo sapiens (Methods: human RBD1, …, UniProt O43347 20-107))
Sequence (O43347 20-107): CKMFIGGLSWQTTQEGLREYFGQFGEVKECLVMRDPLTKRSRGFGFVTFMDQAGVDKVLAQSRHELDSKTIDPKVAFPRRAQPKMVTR
protocol: fluorescence polarization; 2-10 nM RNA; FP with 2 nM FITC-RNA; 0-2% DMSO had no significant effect (2 h incubation); buffer, salt, pH and temperature not given (cited to earlier publications)
conditions: protein: recombinant; tags: GB1 (protein G B1 domain); label: 3'-FITC; single strand
pKd: −log10 of the molar value.
readoutKind: pKd

>>> print(df.to_string())
                                   binder     val
0  UAGGUAGUAGUUUUA (ssRNA) [NumbFITC RNA]  > 6.60
